# System: SNB-78
# test-summary: NCI tumour cell line growth inhibition, 48 h
Active and inactive are the calls of the source. No stated cut-off is given here; in the data, active = GI50 up to about 1.1 µM and inactive = higher.
observation-type: GI50

Here's what some known entries look like.
molecule	GI50
CC(C)(C)c1ccc2c(c1)OP1(Oc3cccc4cccnc34)(O2)Oc2ccc(C(C)(C)C)cc2O1	34.4 µM (inactive)
COc1ccc(NC(=O)CC(=O)NN2C(=O)/C(=C/c3ccc(N(CCC#N)CCC#N)cc3C)N=C2/C=C\c2ccccc2)cc1	> 100 µM (inactive)
O=C1C(O)=C(CN(CCCl)CCCl)C(=O)c2ccccc21	70.8 µM (inactive)

Which GI50 value is on record for COc1cc([C@@H]2c3cc4c(cc3[C@@H](NCc3ccc(C#N)cc3)C3COC(=O)[C@@H]32)OCO4)cc(OC)c1O (some centres undefined) ?
4.74 µM (inactive)
